Protocol details: NCI Yeast Anticancer Drug Screen. Data for the mec2-1 strain (AID 157)
Particulars: S. cerevisiae mec2-1 strain, at 50.0 µM, active compounds read high
This is part of a sample that, as a whole, favours compounds with a hit. Of some 79,000 tested, about 15% had one in any assay.
Listing of recorded growth inhibition by entry.
The reply should contain only the number, in %.

Sample records with growth inhibition:
- Molecule: "[Fe+2].[NH-]C(Cc1ccc(O)cc1)C(=O)O.[NH-]C(Cc1ccc(O)cc1)C(=O)O (stereo not drawn)"
  growth inhibition / %: 8.25
- Molecule: "O=C(NCCc1c[nH]c2ccccc12)C(F)(F)F"
  growth inhibition / %: 7.6

Now examine the next entry.
Lookup result for `O=C1/C(=C/c2ccccc2)CCCC/C1=C\c1ccccc1` ; measured growth inhibition: 31

###

// reported growth inhibition for each item listed
Protocol details: NCI Yeast Anticancer Drug Screen. Data for the mec2-1 strain (AID 157)
Particulars: S. cerevisiae mec2-1 strain, at 50.0 µM, active compounds read high
About 79,000 compounds went through this panel and 15% of them were active in at least one assay; those are over-represented in the sample as a whole. Active and inactive are the calls of the source. No stated cut-off is given here; in the data, active means growth inhibition above about 70%; inactive means the rest.

Worked set:
- Compound: "O=c1[nH]c2c(c(=O)[nH]1)SSC2"
  growth inhibition: "-12.8% (inactive)"
- Compound: "CC1OC(OC2CCC3(C)C(CCC4C3CC(O)C3(C)C(C5=CC(=O)OC5)CCC43O)C2)CC(O)C1OC1CC(O)C(OC2CC(O)C(OC3OC(CO)C(O)C(O)C3O)C(C)O2)C(C)O1 (stereo unspecified)"
  growth inhibition: "-7.7% (inactive)"
- Compound: "COC(C)CC(=O)O (stereo unspecified)"
  growth inhibition: "-28.2% (inactive)"

Lab note: CC(=O)OC(C)C(O)C(O)C(/C=C/C1CC=CC(=O)O1)OC(C)=O (stereo unspecified) gave growth inhibition of 9.45% (inactive)

Per the record, `O=C1CSC(/C(=C/c2ccccc2)c2nc3ccccc3[nH]2)=N1` has growth inhibition of -1.75% (inactive)

growth inhibition measured on `COc1ccc(C(=O)c2cc3c(ccc4ccccc43)oc2=O)cc1` = 0.6% (inactive)

Memo: `CC(=O)Nc1ncc(CCC2OCCO2)c(=O)[nH]1` , reported growth inhibition: -25.1% (inactive)

Lab book: growth inhibition of `Cc1nc2ccccc2c(Br)c1Br` noted as 7.35% (inactive)

Data point: O=[N+]([O-])c1ccc(OC2CC3C4C=CC3C2C4)c([N+](=O)[O-])c1 (stereo unspecified) ; growth inhibition = -17.1% (inactive)

Given item `O=C(O)/C=C\c1ccc(OC(=O)c2ccccc2)cc1` , the value recorded as its growth inhibition is -12.6% (inactive)

Notebook: `S=C1NNC2(C(=S)N1)c1ccccc1-c1ccccc12` , growth inhibition read as -11.2% (inactive)

So, CC1=C(C)CC2C(=O)C=CC(=O)C2C1 (stereo unspecified) ? Its growth inhibition was 1.4% (inactive)

Noted for CCOC1CCC(C(=O)CC)C(C#N)(C#N)C1(C#N)C#N (stereo unspecified) : its growth inhibition reads 13.7% (inactive)

The compound identified as CC1(C)C2CCC1(C)C(NC(=O)COCCOCC(N)=O)C2 (stereo unspecified) registered its growth inhibition at -53.1% (inactive)

Form field growth inhibition, entry N#CC(C(=O)CCC(=O)Nc1ccc(Cl)c(Cl)c1)c1ccc(Cl)cc1 (stereo unspecified) : -29.9% (inactive)

The recorded growth inhibition for entry `CCC(=O)Nc1ccc(F)cc1` equals 1.45% (inactive)

###

Below is a list of entries, each paired with its recorded growth inhibition value.
Protocol details: NCI Yeast Anticancer Drug Screen. Data for the sgs1 mgt1 strain (AID 161);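 further: 0% = growth of cultures given vehicle only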
Particulars: S. cerevisiae sgs1 mgt1 strain, at 50.0 µM, active compounds read high
About 79,000 compounds went through this panel and 15% of them were active in at least one assay; those are over-represented in the sample as a whole.
Supply the numeric figure in %, leaving out any unit text.

Notebook: `C=CCNC(=S)N/C=C(/C#N)C(=O)OC` , growth inhibition read as -16.5

In plain terms, `CCOC(=O)c1ccc(-n2nc(C)cc(Cl)c2=O)cc1` has a documented growth inhibition of 10.8

Please fill in: growth inhibition reported for `COc1c(CO)cc(C)cc1CO` = -6.95

// field: growth inhibition; key: `CCSc1[nH]c2nc[nH]c(=O)c2c1C#N` ; value = -32.5

Short answer for `C/C(=C/c1c(C)c([N+](=O)[O-])c(C)c(C)c1[N+](=O)[O-])C(=O)O` : growth inhibition was 14.7

Item: `O=C(CCC(=O)Nc1cc(Cl)ccc1Cl)CC(=O)c1ccc([N+](=O)[O-])cc1` | growth inhibition: 4.35

growth inhibition reported for this molecule `N#C/C(=C/NC(=S)N=Nc1c(O)[nH]c2ccccc12)C(N)=O` : -19.8

###

Protocol details: NCI Yeast Anticancer Drug Screen. Data for the mlh1 rad18 strain (AID 175)
Particulars: S. cerevisiae mlh1 rad18 strain growth inhibition; at 50.0 µM; active compounds read high
The panel holds about 79,000 compounds, 15% with a hit somewhere; the sample as a whole holds those more often.
Observed property: growth inhibition (%)
Enter your answer as a number in %; do not include the unit.

Sample records with growth inhibition:
- Compound: "CC(=O)OC(C(=O)N1CC1)C(OC(C)=O)C(OC(C)=O)C(OC(C)=O)C(=O)N1CC1 (stereo not drawn)"
  Observed property: "growth inhibition"
  Observed: 29.3
- Compound: "CC1(O)C(=O)N(Cc2ccccc2)c2ccccc21 (stereo not drawn)"
  Observed property: "growth inhibition"
  Observed: 4.05
- Compound: "CN(C)c1ccc(-c2c(C#N)c(N)[nH]c(=S)c2C#N)cc1"
  Observed property: "growth inhibition"
  Observed: 3.45
- Compound: "Cc1cccc[n+]1CC(=O)c1ccc(Cl)cc1"
  Observed property: "growth inhibition"
  Observed: 3.65
- Compound: "CS(=O)(=O)CCC(Nc1ccc([N+](=O)[O-])cc1[N+](=O)[O-])C(=O)O (stereo not drawn)"
  Observed property: "growth inhibition"
  Observed: -11.7
- Compound: "O=C(Nc1cccc(O)c1)C(O)C(O)C(O)C(O)CO (stereo not drawn)"
  Observed property: "growth inhibition"
  Observed: 10.9
- Compound: "CC(NNC(=S)N1CCC(c2ccccc2)CC1)c1ccc2ccccc2n1 (stereo not drawn)"
  Observed property: "growth inhibition"
  Observed: 26.9
- Compound: "Cc1ccncc1C#N"
  Observed property: "growth inhibition"
  Observed: 3.95

// growth inhibition value for `CC(=O)c1c(C)cc(C)nc1C` : 9

Briefly, growth inhibition measured for `N/N=C(/CC(O)(C(F)(F)F)C(F)(F)F)c1ccccc1` : 2.65

C=CC(C)c1cccc(C=O)c1O (stereo not drawn) has a reported growth inhibition of 15.2

`Nc1nnc(-c2ccc(-c3nnc(N)o3)cc2)o1` has a reported growth inhibition of -7.25

Notebook: CC(Oc1cc(Cl)c(Cl)cc1Cl)C(=O)NC(Cc1ccccc1)C(=O)O (stereo not drawn) , growth inhibition read as 5.8

###

Protocol details: NCI Yeast Anticancer Drug Screen. Data for the mec2-1 strain (AID 157)
Particulars: S. cerevisiae mec2-1 strain, at 50.0 µM, active compounds read high
This is part of a sample that, as a whole, favours compounds with a hit. Of some 79,000 tested, about 15% had one in any assay.
Observed property: growth inhibition (%)
API: value field is a number in %; no unit string.

Some entries whose results are on file:
- Smiles code: "COC(CN1C=C(Sc2ccccc2)CC1)OC"
  Unit abbrev: "%"
  growth inhibition: 24.2
- Smiles code: "COc1ccc(C(=O)/C=C/c2ccc(OCCSCCCCCCCCCCSCCOc3ccc(/C=C/C(=O)c4ccc(OC)cc4)cc3)cc2)cc1"
  Unit abbrev: "%"
  growth inhibition: -30.1

For this compound ( `NCCCCCCN1CCN(c2cccc(Cl)c2)CC1` ), measured growth inhibition is 21.9

###

Protocol details: NCI Yeast Anticancer Drug Screen. Data for the mlh1 rad18 strain (AID 175)
Particulars: S. cerevisiae mlh1 rad18 strain growth inhibition; at 50.0 µM; active compounds read high
About 79,000 compounds went through this panel and 15% of them were active in at least one assay; those are over-represented in the sample as a whole. Active and inactive are the calls of the source. No stated cut-off is given here; in the data, active means growth inhibition above about 70%; inactive means the rest.
Observed property: growth inhibition

- Molecule: "N#Cc1ccc(Cl)cc1C#N"
  growth inhibition: "-14.3% (inactive)"

Summary for this molecule, `CC(=O)OCC#Cc1ccccc1` : growth inhibition is -1.2% (inactive)

Consider `O=C(Nc1ccccc1)Oc1cccc(-c2ccc(-c3ccccc3)cc2)c1` . Its measured growth inhibition is 18.2% (inactive)

growth inhibition measured on C[C@H]1CCCCC[C@@H]2CC(=O)CC2C(=O)CCC(=O)O1 (some centres undefined) = 12.7% (inactive)

Lab book: growth inhibition of `O=C1/C(=C/c2ccc([N+](=O)[O-])cc2)CCCc2ccccc21` noted as 21.9% (inactive)

get_value(item= `COC(=O)c1cc(CC2Cc3cc4c(cc3C2)CCC4)cc2c1CCC2` , readout=growth inhibition) returns -1.25% (inactive)

The molecule listed as O=C(c1ccccc1)C1Nc2ccccc2CO1 (centres undefined) has a reported growth inhibition of 28.9% (inactive)

growth inhibition reported for this molecule `CCC(C(=O)O)(C(C)C)C(C)C` : 8.1% (inactive)

Sure, the documented growth inhibition for `O=C1CCC=Cc2c(O)ccc(O)c21` is 27.9% (inactive)

growth inhibition reading for `Cc1c(C(=O)CC(=O)C(=O)Nc2ccccc2C(F)(F)F)[n+](=O)c2ccccc2n1[O-]` : -6.45% (inactive)

Lab book: growth inhibition of `Nc1ccnc2n[nH]nc12` noted as -26.8% (inactive)

Measured growth inhibition, CC1=CC=CNC1(N)Br (centres undefined) : -4.9% (inactive)

Query CC12CCC3c4ccc(OC(=O)c5ccc([N+](=O)[O-])cc5)cc4CCC3C1CCC2=O (centres undefined) yields growth inhibition of -1.75% (inactive)

The molecule listed as CCN1CCC(O)(c2ccc(Oc3ccc(F)cc3)cc2)C(C(=O)c2ccc(Oc3ccc(F)cc3)cc2)C1 (centres undefined) shows growth inhibition equal to 29.9% (inactive)

Value of growth inhibition reported for the molecule `O=S(=O)(CCl)Nc1ccncc1` is -16.8% (inactive)

Notebook: `Cc1ccc(S(=O)(=O)C(Sc2ccccc2)=S=NC(C)(C)C)cc1` , growth inhibition read as 91.8% (active)

Measured growth inhibition, `CCOC(=O)[C@H](C)OC(=O)[C@@](C)(NC(=O)c1ccccc1C(=O)OC)[C@@H]1NC=C(C(=O)OC)CS1` : 5.8% (inactive)

Entry `CN(C)CC(=O)c1c[nH]c(=O)[nH]c1=O` , growth inhibition reported as -8.55% (inactive)

Field growth inhibition (entry `CC(C)(O)c1cc(=O)n(-c2ccccc2)[nH]1` ) reads -5.1% (inactive)
